Just for reference, PubChem BioAssay (NCI) is where these values come from.

Record form. Attribute: TGI. Fill in for each entry.
Tested on: K-562 leukemia
experimentNotes: NCI tumour cell line growth inhibition, 48 h

Answered examples (9):
molecule: COc1ccc(C2(O)C(S(=O)(=O)c3ccc(C)cc3)=Cc3ccc(OC)cc32)cc1 (stereo not given)
experimentalTarget: K-562 leukemia
TGI: > 100 µM
--
molecule: CC(C)(C)C1=NC(=P(c2ccccc2)(c2ccccc2)c2ccccc2)C(=O)O1
experimentalTarget: K-562 leukemia
TGI: > 100 µM
--
molecule: COc1ccc(-c2c(C#N)c(=O)nc(SC)n2C2OCC(OC(C)=O)C(OC(C)=O)C2OC(C)=O)cc1 (stereo not given)
experimentalTarget: K-562 leukemia
TGI: > 100 µM
--
molecule: O=C1C(NCCF)=C(Cl)C(=O)c2ncccc21
experimentalTarget: K-562 leukemia
TGI: 0.575 µM
--
molecule: CC(C)/C=N\N1C(N)=C(C#N)C(C#N)(C#N)C1C(C)C (stereo not given)
experimentalTarget: K-562 leukemia
TGI: > 100 µM
--
molecule: CC(OC(C)(C)C)[C@H](NC(=O)OCc1ccccc1)C(=O)NC(OCc1ccccc1)[C@H]1COC(C)(C)O1 (stereo not given in full)
experimentalTarget: K-562 leukemia
TGI: > 10 µM
--
molecule: Cc1cc(C)nc(Sc2c([N+](=O)[O-])ncn2C)n1
experimentalTarget: K-562 leukemia
TGI: > 100 µM
--
molecule: CN=c1ss/c(=N\C(=S)N(C)C)n1-c1ccccc1
experimentalTarget: K-562 leukemia
TGI: > 100 µM
--
molecule: CSC(SC)=C(C#N)C(=O)Nc1ccc(C)cc1
experimentalTarget: K-562 leukemia
TGI: > 100 µM

Please turn your attention to the following entry.
Input line: Tell me reported TGI for Cn1ccnc1Sc1ccc(/C=N\NC(=O)c2cccc(F)c2)cc1[N+](=O)[O-] , tested with K-562 leukemia.
Output line: > 100 µM

###

Record form. Attribute: TGI. Fill in for each entry.
System: BT-549 breast
experimentNotes: NCI tumour cell line growth inhibition, 48 h

Answered examples (3):
compound: Nc1cccc(C2CCCc3c2[nH]c2ccccc32)c1 (stereo unspecified)
experimentalTarget: BT-549 breast
TGI: 41.9 µM

compound: COc1cc2c3c(c1O)-c1c(ccc(OC)c1OC)CC3N(C)CC2 (stereo unspecified)
experimentalTarget: BT-549 breast
TGI: > 100 µM

compound: CC(C)(C)OC(=O)N1CC(O)O[C@H](c2ccccc2)[C@@H]1c1ccccc1 (stereo partly specified)
experimentalTarget: BT-549 breast
TGI: 36.4 µM

Go through the list and state TGI for each entry.
1. O=S(=O)(O)c1cc(N=Nc2cccc3ccccc23)c(O)c2ncccc12
2. COC(=O)CN1Cc2cc(C)cc(c2O)CN(CC(=O)OC)Cc2cc(C)cc(c2O)CN(CC(=O)OC)Cc2cc(C)cc(c2O)C1
3. COc1cccc2c(=O)c3c(n(C)c12)OC(C(C)C)C3 (stereo unspecified)
4. CC(C)C1(Cl)CCC2C3(C)CCCC(C)(C(=O)O)C3CC(Cl)C2(Cl)C1Cl (stereo unspecified)
5. O=[N+]([O-])c1ccc(OCc2nnc(CCCCCCCCc3nnc(COc4ccc([N+](=O)[O-])cc4)o3)o2)cc1
6. NC(Cc1ccc(O)c(O)c1)P(=O)(O)O (stereo unspecified)
7. C[C@H]1CCC/C=C/[C@@H]2C[C@H](O)C[C@H]2[C@H](O)[C@@H](S(=O)C[C@@H](N)C(=O)O)CC(=O)O1 (stereo partly specified)
8. N#Cc1c(-c2ccc(Cl)cc2)cc(-c2ccc(Nc3ccnc4cc(Cl)ccc34)cc2)nc1N

Output line:
["> 100 µM", "> 100 µM", "> 100 µM", "> 100 µM", "> 100 µM", "> 100 µM", "> 100 µM", "> 100 µM"]
